Entry source: the supplement of paper PMC3414501

tested on: S. cerevisiae SK1 pCDA2-eGFP (USY613), sporulating; experiment: CDA2-GFP sporulation assay sensitivity score (z-score vs DMSO controls); higher = stronger inhibition of sporulation, active = hit call of the paper;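 also: active if sensitivity score above 5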
Counter-ions that a name gives are not always drawn.
CDA2-GFP sporulation assay sensitivity score vs 0.8: at or above is YES, below is NO.

Example results:
CC(C)NCC(O)c1ccc(NS(C)(=O)=O)cc1 (configuration not stated) [Sotalol hydrochloride] (stock concentration (mM, diluted 1:100): 8.8): NO
Clc1ccccc1CN1CCc2sccc2C1 [Ticlopidine hydrochloride] (stock concentration (mM, diluted 1:100): 8.7): YES
CCCCCCNC(=O)n1cc(F)c(=O)[nH]c1=O [Carmofur] (stock concentration (mM, diluted 1:100): 10.3): NO
CN(CCO)CC(O)Cn1cnc2c1c(=O)n(C)c(=O)n2C (configuration not stated) [Xanthinol nicotinate] (stock concentration (mM, diluted 1:100): 10): YES
CCS(=O)(=O)CCn1c([N+](=O)[O-])cnc1C [Tinidazole] (stock concentration (mM, diluted 1:100): 10): YES
O=C1[C@H](CC[C@H](O)c2ccc(F)cc2)[C@@H](c2ccc(O)cc2)N1c1ccc(F)cc1 [Ezetimibe] (stock concentration (mM, diluted 1:100): 10): NO

Q: Is reported CDA2-GFP sporulation assay sensitivity score greater than or equal to 0.8 here: C[C@@H]1C[C@H]2[C@@H]3CCC4=CC(=O)C=C[C@]4(C)[C@@]3(F)[C@@H](O)C[C@]2(C)[C@H]1C(=O)CO [Desoximetasone] (stock concentration (mM, diluted 1:100): 10)
Ans: NO

Q: Is reported CDA2-GFP sporulation assay sensitivity score greater than or equal to 0.8 here: CN1CCCCC1CCN1c2ccccc2Sc2ccc([S+](C)[O-])cc21 (configuration not stated) [Mesoridazine] (stock concentration (mM, diluted 1:100): 10)
Ans: NO

Q: Is reported CDA2-GFP sporulation assay sensitivity score greater than or equal to 0.8 here: CC[N+](C)(CC)CCOC(=O)C(O)(c1ccccc1)C1CCCCC1 (configuration not stated) [Oxyphenonium bromide] (stock concentration (mM, diluted 1:100): 10)
Ans: NO

Q: Is reported CDA2-GFP sporulation assay sensitivity score greater than or equal to 0.8 here: C[C@H]1C[C@H]2[C@@H]3CCC4=CC(=O)C=C[C@]4(C)[C@@]3(Cl)[C@@H](O)C[C@]2(C)[C@@]1(O)C(=O)CO [Beclomethasone] (stock concentration (mM, diluted 1:100): 10)
Ans: YES

Q: Is reported CDA2-GFP sporulation assay sensitivity score greater than or equal to 0.8 here: O=C1CC[C@@H](C(=O)N2CSC[C@H]2C(=O)O)N1 [Pidotimod] (stock concentration (mM, diluted 1:100): 10)
Ans: NO

Q: Is reported CDA2-GFP sporulation assay sensitivity score greater than or equal to 0.8 here: C=CCc1ccc(O)c(-c2ccc(O)c(CC=C)c2)c1 [Honokiol] (stock concentration (mM, diluted 1:100): 10.1)
Ans: NO

====

Measured CDA2-GFP sporulation assay sensitivity score values are reported for all entries that follow.
tested on: S. cerevisiae SK1 pCDA2-eGFP (USY613), sporulating; assay: CDA2-GFP sporulation assay sensitivity score (z-score vs DMSO controls); higher = stronger inhibition of sporulation, active = hit call of the paper;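 also: active if sensitivity score above 5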
Give your answer as a number; write no unit.

Please review the following examples before continuing.
CC(=O)Oc1ccccc1C(=O)Nc1ncc([N+](=O)[O-])s1 [Nitazoxanide] (stock concentration (mM, diluted 1:100): 10): 7.92
COC(=O)Nc1nc2cc(C(=O)c3ccc(F)cc3)ccc2[nH]1 [Flubendazole] (stock concentration (mM, diluted 1:100): 10): 0.4

With those in mind, consider the next compound.
Recorded result, O=C1C(c2c(O)[nH]c3ccccc23)=Nc2ccccc21 [Indarubicin] (stock concentration (mM, diluted 1:100): 10) , CDA2-GFP sporulation assay sensitivity score: 9.61
